// data source = patent US12721809B2

- ASSAY INFO: Solubility of KDR2-2 in different media
- Format: physicochemical
- SETTINGS: chloroform, organic solvent or mixture
OUTCOME MEASURE: solubility

*Q* Identify solubility associated with the compound Nc1nccc(Oc2ccc3c(C(=O)Nc4cccc(C(F)(F)F)c4)cccc3n2)n1 [KDR2-2]
*A* < 1100 µg/mL

====

- ASSAY INFO: Solubility of KDR2-2 in different media
- Type: physicochemical
- SETTINGS: ethyl acetate, organic solvent or mixture
OUTCOME MEASURE: solubility

*Q* Identify solubility associated with the compound `Nc1nccc(Oc2ccc3c(C(=O)Nc4cccc(C(F)(F)F)c4)cccc3n2)n1`
*A* 3800 to 4600 µg/mL
